System: PLC/PRF/5 KSR2 OE (PLC cells overexpressing KSR2)
Assay: Cell IC50 assay (CCK8 cell viability), PLC/PRF/5 KSR2 OE
Assay type: cell-based
Conditions: Homo sapiens, PLC-PRF-5; hepatoma cells, 72 h incubation, CCK8; read-out: IC50 value of cell viability, PLC/PRF/5 KSR2 OE (PLC cells overexpressing KSR2)
readoutName: pIC50
Scale for pIC50: -log10 of concentration given in mol/L; no unit attached.

Guide cases for pIC50, answers given:
molecule | pIC50
CN1CCN(C2CN(CCCNC(=O)c3nn(C)c4c3COc3cc(OC(F)(F)F)ccc3-4)C2)CC1 [Compound 107] | 5.70
Cn1nc(C(=O)NCCCN2CCN(C3CCCC3)CC2)c2c1-c1ccccc1SC2 [Compound 3] | 4.49
Cn1nc(C(=O)NCCCN2CCN(c3ccc(C#N)cc3)CC2)c2c1-c1ccccc1SC2 [Compound 29] | 4.39

Kindly note the recorded pIC50 for CN1CCN(C2CN(C3CC(CNC(=O)c4nn(C)c5c4COc4cc(Cl)ccc4-5)C3)C2)CC1 (stereo not shown) [Compound 99] , which is 5.05
